tested on: IGROV-1; assay: NCI tumour cell line growth inhibition, 48 h
Active and inactive are the calls of the source. Cut-off read from the data, not from the text of the source: active = GI50 up to about 1.1 µM and inactive = higher. Starred links: 1 amine or outer side, 2 acyl side, 3 side chain; linkers in the order of their positions; H or OH if unused. Non-standard residues stand in square brackets, D forms with d. Residues, ends and D or L forms follow the SMILES beside them. ξ: configuration not given here. X24 = O=C(C(CC(O)CO)O[*:1])[*:2]; Ile(3ξ) = CCC(C)[C@H](N)C(=O)O; NMeV = CN[C@H](C(=O)O)C(C)C; NMeA = CN[C@@H](C)C(=O)O; βAla = NCCC(=O)O
Valid outcomes are listed here; reply with one: true (active), false (inactive)

Some solved cases for reference:
[ask] What was the test verdict on COC(=O)C1C(OC(=O)c2ccccc2)CC2CCC1N2C(N)=O (stereo unspecified) ?
[reply] false

[ask] Name the outcome recorded for COC(=O)c1cc2/c(=N/O)c3ccccc3sc2o1 in the assay.
[reply] false

[ask] // outcome(item) with item = CS/C(=N\C(=S)N(C)C)N(c1ccccc1)c1nc(N(C)C)s[s+]1
[reply] false

Further cases:
[ask] Assay outcome for CCC(C)[C@@H]1NC(=O)[C@@H]2CCCN2C(=O)C(CC(O)CO)OC(=O)CCNC(=O)[C@H](C)N(C)C(=O)[C@H](C(C)C)N(C)C1=O (stereo partly specified) (cyclo([Ile(3ξ)][NMeV][NMeA][βAla][X24]P)) : what was it?
[reply] false

[ask] // outcome(item) with item = CC(=O)C(=Cc1cn(C)c(=O)n(C)c1=O)C(C)=O
[reply] false

[ask] Outcome? CC(C)(C)NC(=O)CCC1C(C(=O)NC(C)(C)C)C2(Cl)C(Cl)=C(Cl)C1(Cl)C2(Cl)Cl (stereo unspecified)
[reply] false
